procedure.text: Biodistribution in brainstem and serum of mice, HPLC analysis of tissue extracts
Type: in vivo
setup.conditions: mouse, brainstem, ip; UR-8 treated mice; analyte UR-8; 3 hours after intraperitoneal injection; read-out: UR-8 concentration, Brainstem
experimental.endpoint: concentration at 3 h (ng/mL)

>  <compound>
OCCCNc1cc(N2CCc3ccccc3CC2)nc(-c2ccccn2)n1 [UR-8]

>  <data.value>
410

$$$$
